assay: Pharmacokinetic profile after IV administration; type: in vivo, female C57Bl/6 mice; conditions: female, C57Bl/6, mouse, plasma, iv, 5 mg/kg
Recorded half-life by entry

# COMPOUND, RESULT_UNITS, half-life
rows = [
    ("O=C(C=Cc1cccnc1)c1ccncc1 [3PO, reference compound]", "h", 0.3),
    ("O=C(C=Cc1ccc2ccccc2n1)c1ccncc1", "h", 5.1),
]
